# target desc: gastrin (CCK2) receptors (Rattus norvegicus, UniProt P30553)
# Construct: The stomach was excised and flushed with ca. 1 ml of unbuffered physiological saline solution; from tissue; host or cells: isolated whole stomach of immature rats (ca. 21 days old)
# Sequence (P30553 1-452): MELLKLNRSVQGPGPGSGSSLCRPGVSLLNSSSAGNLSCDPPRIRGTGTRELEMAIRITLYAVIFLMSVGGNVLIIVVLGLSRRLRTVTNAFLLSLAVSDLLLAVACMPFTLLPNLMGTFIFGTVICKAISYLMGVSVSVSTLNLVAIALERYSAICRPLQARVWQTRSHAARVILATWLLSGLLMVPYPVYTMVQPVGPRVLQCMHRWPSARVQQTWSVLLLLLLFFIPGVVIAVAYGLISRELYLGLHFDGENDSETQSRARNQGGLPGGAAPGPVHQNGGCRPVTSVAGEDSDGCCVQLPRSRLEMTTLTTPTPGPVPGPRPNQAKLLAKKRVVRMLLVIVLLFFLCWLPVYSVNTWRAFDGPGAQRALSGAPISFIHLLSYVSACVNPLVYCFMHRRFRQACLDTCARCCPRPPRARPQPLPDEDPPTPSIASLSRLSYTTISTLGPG
# measurement notes: gastrin (CCK2) antagonist activity in an immature rat stomach assay
# measurement conditions: pentagastrin dose-response curves, acid secretion, read-out: pKB rat stomach (converted)
measured attribute: Kb
State the value, then name its unit.

Would you be so kind as to report Kb for each listed record?
1. CC1CCC(C2=NN(CC(=O)Nc3cccc(CC(=O)O)c3)C(=O)N(CC(=O)C(C)(C)C)c3ccccc32)CC1 (stereo not shown)
2. CNc1cc(NC(=O)CN2N=C(C3CCCCC3)c3ccccc3N(CC(=O)C(C)(C)C)C2=O)cc(C(=O)OC)c1
3. CNc1cccc(NC(=O)CN2N=C(c3ccccn3)c3ccccc3N(CC(=O)c3ccccc3C)C2=O)c1
4. CC(C)(C)C(=O)CN1C(=O)N(CC(=O)Nc2cccc(SCC(=O)O)c2)N=C(C2CCCCC2)c2ccccc21

Response:
1: 3.98 nM; 2: 372 nM; 3: 50.1 nM; 4: 6.61 nM
